- subject_of_test: UniProt P18901
- Sequence (P18901 whole entry): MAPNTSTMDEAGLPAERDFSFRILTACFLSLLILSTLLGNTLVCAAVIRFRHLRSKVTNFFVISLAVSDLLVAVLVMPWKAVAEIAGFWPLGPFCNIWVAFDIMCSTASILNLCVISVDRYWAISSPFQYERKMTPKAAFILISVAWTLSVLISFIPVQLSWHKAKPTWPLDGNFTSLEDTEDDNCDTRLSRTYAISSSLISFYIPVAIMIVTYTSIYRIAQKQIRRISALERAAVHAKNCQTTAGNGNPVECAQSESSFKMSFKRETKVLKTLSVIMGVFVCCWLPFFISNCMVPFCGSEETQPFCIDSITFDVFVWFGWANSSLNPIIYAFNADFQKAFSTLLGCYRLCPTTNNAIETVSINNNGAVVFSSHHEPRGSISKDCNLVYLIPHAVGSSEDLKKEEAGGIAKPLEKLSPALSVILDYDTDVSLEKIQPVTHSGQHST
- assay_summary: Tested for its ability to inhibit rat caudate adenylate cyclase (Dopamine receptor D1) at 10 uM
observed_property: inhibition (%)
Entry rule: numbers only, all in %.

q: Specify measured inhibition for "NCCc1ccc(O)c2nc(O)ccc12" .
a: 1

q: Consider the molecule "CCCN(CCc1ccc(O)cc1)CCc1ccc(O)c2nc(O)ccc12" and give its recorded inhibition.
a: 0

q: Read the entry "CCCN(CCC)CCc1cccc2nc(O)ccc12" and write its reported inhibition.
a: 0

q: Indicate its recorded inhibition; the molecule in question is "CCCN(CCC)CCc1ccc(OC)c2nc(O)ccc12"
a: 0

q: Output measured inhibition for this item: "COc1ccc(CCNCCc2ccccc2)c2ccc(O)nc12"
a: 0

q: Give the measured inhibition for "NCCc1cccc2nc(O)ccc12"
a: 5

q: Quick one: give measured inhibition for "CCCN(CCC)CCc1ccc(O)c2[nH]c(=O)ccc12"
a: 0

q: Tell me measured inhibition for "CCCN(CCC)CCc1ccc(O)c2c1CCC(=O)N2" please.
a: 0

q: Please give the documented inhibition of "Oc1ccc(CCNCCc2ccc(O)c3nc(O)ccc23)cc1"
a: 6

q: Please report the measured inhibition for "CCCN(CCc1ccccc1)CCc1ccc(O)c2nc(O)ccc12"
a: 6

q: Check the records and state inhibition for "COc1ccc(CCN)c2ccc(O)nc12"
a: 1
